Settings: in n-propyl acetate, 298.15 K
property.name: solubility (mole fraction)
Would you mind answering with just the numeric figure?

solubility (mole fraction) for N#Cc1c(Cl)c(Cl)c(Cl)c(C#N)c1Cl ?
0.00444

* * *

Conditions: in MIBK, 308.15 K
property.name: solubility (mole fraction)
A bare number is all that is needed in reply.

What value of solubility (mole fraction) has been recorded for this entry: N#Cc1c(Cl)c(Cl)c(Cl)c(C#N)c1Cl
0.00668

* * *

Conditions: in n-propyl acetate, 323.15 K
property.name: solubility (mole fraction)
Answer with the value's number alone.

Query: solubility (mole fraction); subject: N#Cc1c(Cl)c(Cl)c(Cl)c(C#N)c1Cl
0.00904
